# credit: BindingDB's records for doi:10.1016/j.bmcl.2016.09.067

target: Serine/threonine-protein kinase pim-2 (Homo sapiens); test: Inhibition of recombinant Pim2 (unknown origin) by electrochemiluminescence assay
Sequence (Q9P1W9 whole entry): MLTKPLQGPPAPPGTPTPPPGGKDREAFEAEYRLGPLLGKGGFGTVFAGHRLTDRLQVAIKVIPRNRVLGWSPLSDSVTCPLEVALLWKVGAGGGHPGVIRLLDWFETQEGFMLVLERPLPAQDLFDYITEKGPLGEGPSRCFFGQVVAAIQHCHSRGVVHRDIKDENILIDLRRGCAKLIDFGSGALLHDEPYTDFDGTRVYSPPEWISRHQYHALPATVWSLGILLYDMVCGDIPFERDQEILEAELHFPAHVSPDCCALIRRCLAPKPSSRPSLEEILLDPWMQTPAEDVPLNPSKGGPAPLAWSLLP
ASSAY ENDPOINT: IC50

[[record]]
compound = "N[C@H]1CCN(c2ccncc2Nc2ncc3ccc(-c4c(F)cccc4F)nn23)C1 [US9187486, 13]"
assay_endpoint = "IC50"
reported = "> 1000 nM"


Now consider a different compound.
Lookup: IC50 / Serine/threonine-protein kinase pim-2 (Homo sapiens) / N[C@H]1CCCN(c2cnccc2Nc2ncc3ccc(-c4c(F)cccc4F)nn23)C1 [US9187486, 80] > 1000 nM
